Field: phosphorylation enrichment. Provide a value for each of the sequences that follow.
MEASURED_TARGET: FGFR3 (UniProt P22607)
Sequence (P22607 whole entry, looked up): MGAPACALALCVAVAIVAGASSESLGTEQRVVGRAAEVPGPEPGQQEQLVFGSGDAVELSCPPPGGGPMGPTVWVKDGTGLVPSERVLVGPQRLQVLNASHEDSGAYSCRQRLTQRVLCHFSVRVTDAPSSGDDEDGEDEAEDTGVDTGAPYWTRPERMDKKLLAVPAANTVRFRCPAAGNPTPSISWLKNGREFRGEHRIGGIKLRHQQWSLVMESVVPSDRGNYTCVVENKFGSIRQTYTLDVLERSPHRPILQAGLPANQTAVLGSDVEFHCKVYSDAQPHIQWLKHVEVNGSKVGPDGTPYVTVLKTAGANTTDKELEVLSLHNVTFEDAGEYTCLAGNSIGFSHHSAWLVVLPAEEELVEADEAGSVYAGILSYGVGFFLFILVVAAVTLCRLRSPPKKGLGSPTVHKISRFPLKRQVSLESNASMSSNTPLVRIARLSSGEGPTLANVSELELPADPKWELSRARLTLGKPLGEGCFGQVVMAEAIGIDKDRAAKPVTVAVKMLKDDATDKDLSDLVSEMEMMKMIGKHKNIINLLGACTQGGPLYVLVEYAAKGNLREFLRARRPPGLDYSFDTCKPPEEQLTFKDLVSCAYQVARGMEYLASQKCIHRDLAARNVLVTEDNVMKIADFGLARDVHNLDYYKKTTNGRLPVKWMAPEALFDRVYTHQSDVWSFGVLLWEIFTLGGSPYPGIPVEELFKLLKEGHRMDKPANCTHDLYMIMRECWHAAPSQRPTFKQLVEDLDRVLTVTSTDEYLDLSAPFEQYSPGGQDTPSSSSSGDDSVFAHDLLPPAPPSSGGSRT
ASSAY_SUMMARY: phosphorylation enrichment, bacterial display (enrichment ratio); higher = better substrate or ligand; peptides without Tyr show the background;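 note: 11-residue human phosphosite peptides and single-mutation variants displayed on the E. coli surface, counted by deep sequencing, each peptide's frequency after selection divided by its frequency in the unselected input library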;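 note: frequency after pTyr selection over input frequency; kinase dosed for 20-30% of maximal phosphorylation in three min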
# print the numeric value only

GET /values?readout=phosphorylation enrichment&item= VDEVLYEDSSA [MTHFS_Y197_T202A] 0.609

GET /values?readout=phosphorylation enrichment&item= FLLTVYSIFSK [SGCE_Y38] 0.647

GET /values?readout=phosphorylation enrichment&item= FRNSLYAPDFS [FAM92A_Y226_YF] 0.743

GET /values?readout=phosphorylation enrichment&item= FIGVTYKNEED [PDGFRA_Y993_YF] 0.629

GET /values?readout=phosphorylation enrichment&item= FPILNYKDIRK [CFAP221_Y798_M795I] 0.464

GET /values?readout=phosphorylation enrichment&item= PPEFSYGLQTQ [SRA1_Y35_Q32E] 0.772

GET /values?readout=phosphorylation enrichment&item= EKKQTYGSCRK [LACTB_Y473_R469K] 0.488

GET /values?readout=phosphorylation enrichment&item= RALRHYYKLNI [ETV6_Y401] 1.03

GET /values?readout=phosphorylation enrichment&item= PNKAVYTKMMT [G6PD_Y401_E398K] 0.423

GET /values?readout=phosphorylation enrichment&item= GGGMFYPLDLF 0.693

GET /values?readout=phosphorylation enrichment&item= LKFAIYFEVRE [LAMA2_Y1258_A1261V_YF] 1.08

GET /values?readout=phosphorylation enrichment&item= FSAPNYCYRCG [PPP2CA_Y265] 0.45

GET /values?readout=phosphorylation enrichment&item= AFLGEYIPTVF [RAC2_Y32_P29L] 0.967

GET /values?readout=phosphorylation enrichment&item= GREYIYVDPMQ [PDGFRA_Y574_H570R] 8.94

GET /values?readout=phosphorylation enrichment&item= FEGHSYSACTT [MMP9_Y241_R239H] 0.656

GET /values?readout=phosphorylation enrichment&item= RGLQVYHKRNA [LRP2_Y2010_R2012K] 0.642

GET /values?readout=phosphorylation enrichment&item= QWPGPYDRPGA [HNRNPH2_Y210_R206W] 0.798

GET /values?readout=phosphorylation enrichment&item= VQEDIYDEFVE [ALDH2_Y332] 0.731

GET /values?readout=phosphorylation enrichment&item= NSRYTCKLEVK [USH2A_Y3747_Y3747C] 0.885

GET /values?readout=phosphorylation enrichment&item= SGVSFYINLCQ [IGF2R_Y2025_N2020S_YF] 1.19

GET /values?readout=phosphorylation enrichment&item= LLREWYLQDPF [SIX3_Y225_YF] 0.784

GET /values?readout=phosphorylation enrichment&item= RLYARYFQGDL [PDK3_Y337] 0.923

GET /values?readout=phosphorylation enrichment&item= SAVVPYEPPEV [TP53_Y220_V216A] 0.761

GET /values?readout=phosphorylation enrichment&item= EVKAQYEDIAQ [KRT1_Y358] 0.748

GET /values?readout=phosphorylation enrichment&item= DRPASYLEKVR [KRT13_Y118_L115P] 0.404

GET /values?readout=phosphorylation enrichment&item= RETLTYAQAQR [BRD1_Y33] 0.525

GET /values?readout=phosphorylation enrichment&item= YSDPSYVKQME [CDC5L_Y464] 0.716

GET /values?readout=phosphorylation enrichment&item= YAKSVYWENTL [NUP107_Y296] 0.619

GET /values?readout=phosphorylation enrichment&item= PRNLIYFGEHP [TRPV6_Y201_C197R] 0.912

GET /values?readout=phosphorylation enrichment&item= LHSDHYSPSGR [TMPRSS12_Y23_Y19H] 0.871

GET /values?readout=phosphorylation enrichment&item= LKLIQYHLIQQ [AKAP4_Y554_T557I] 0.924

GET /values?readout=phosphorylation enrichment&item= FAKSVYWENTL [NUP107_Y296_YF] 0.752

GET /values?readout=phosphorylation enrichment&item= EVESPYEVHDF [GIGYF2_Y1168_YF] 0.81

GET /values?readout=phosphorylation enrichment&item= SNMPTYSGHFT [GRIN2A_Y1224] 0.428

GET /values?readout=phosphorylation enrichment&item= KRISCYEASYQ [PFKFB3_Y194] 0.656

GET /values?readout=phosphorylation enrichment&item= EKQLLYSENKT [FRK_Y132] 0.599

GET /values?readout=phosphorylation enrichment&item= TRDTDYQMTKR [ADA_Y308_L304R] 0.7

GET /values?readout=phosphorylation enrichment&item= VDSIEYEVASQ [SLC7A7_Y7_T5I] 0.729

GET /values?readout=phosphorylation enrichment&item= VEKGSYSALRA [ABCC2_Y845_L849R] 0.396

GET /values?readout=phosphorylation enrichment&item= KGSEGYLAAIY [NF1_Y2503_T2507I] 0.552

GET /values?readout=phosphorylation enrichment&item= MPAVTYTPAMR [MEGF10_Y895] 0.425

GET /values?readout=phosphorylation enrichment&item= YRAPGYREVVI [TNS2_Y673] 0.443

GET /values?readout=phosphorylation enrichment&item= PRPAGYPSMVS [CACNA1C_Y1832_T1835M] 0.364

GET /values?readout=phosphorylation enrichment&item= NNRVFYGNSDC [RS1_Y177_R182C] 0.62

GET /values?readout=phosphorylation enrichment&item= NGEDPYAGSTD [XRCC1_Y515] 0.67

GET /values?readout=phosphorylation enrichment&item= QGLRLYRTHLA [BTK_Y617_P619T] 0.365

GET /values?readout=phosphorylation enrichment&item= IVAEYYDNLPH [DEGS1_Y284_A280V] 6.4

GET /values?readout=phosphorylation enrichment&item= NKVQFYIPDMN [NCR1_Y84_K82Q] 0.711

GET /values?readout=phosphorylation enrichment&item= LEIETDRRLLD [KRT12_Y429_Y429D] 1.4

GET /values?readout=phosphorylation enrichment&item= ALKWGYTVKGI [OAT_Y158_R154L] 0.72

GET /values?readout=phosphorylation enrichment&item= DHAGMYGLGDR [MAPT_Y18_T17M] 0.393

GET /values?readout=phosphorylation enrichment&item= ILTLKYPIKHG [ACTA1_Y71_E74K] 0.497

GET /values?readout=phosphorylation enrichment&item= NNPAFYVLEGV [INPPL1_Y987_YF] 0.612

GET /values?readout=phosphorylation enrichment&item= NYYDTCIKTCL [IQGAP2_Y1445_Y1445C] 5.45

GET /values?readout=phosphorylation enrichment&item= HKNNNYEPNLF [BRCA2_Y57] 0.508

GET /values?readout=phosphorylation enrichment&item= KDGSGYISAAE [CALM1_Y100_N98S] 0.496

GET /values?readout=phosphorylation enrichment&item= SNNFIYTTLGV [FAM83B_Y639_K640T_YF] 1.16
